Parameter IC50: see the listing below.
target: Ubiquitin carboxyl-terminal hydrolase 28 (Homo sapiens); test: Concentration-response biochemical assay confirming initial hits as inhibitors of ubiquitin-specific protease 28 (AID 1645866); details: purified USP28, ubiquitin-rhodamine fluorescence, 30 min
Active and inactive are the calls of the source.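 How the source made its calls: active means in confirmatory dose-response testing, peak deubiquitinase inhibition of 30% or more; inactive means the rest.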
property: IC50

>>> df
                                   compound                           target_of_assay            observed
0  CCOc1ccc(-c2noc(-c3nn(-c4cccc(OC)c4)ccc3=O)n2)cc1  Ubiquitin carboxyl-terminal hydrolase 28 (Homo sapiens)             4.44 µM
1  O=C(OC1CSc2nc3ccccc3n2C1)c1ccc([N+](=O)[O-])o1 (stereo not given)  Ubiquitin carboxyl-terminal hydrolase 28 (Homo sapiens)             33.2 µM
2  CCCCC/C=C/C=C/C(=O)OC1C(O)CC(c2ccc3c(c2O)C(=O)c2c(O)cc4cc(C)cc(O)c4c2C3=O)OC1C (stereo not given)  Ubiquitin carboxyl-terminal hydrolase 28 (Homo sapiens)             14.6 µM
3  Cc1noc(C)c1S(=O)(=O)Nc1ccc(C(=O)Nc2ccc3c(c2)OCCO3)cc1  Ubiquitin carboxyl-terminal hydrolase 28 (Homo sapiens)             3.82 µM
4  O=S(c1ccc2ccccc2c1)c1cnns1 (stereo not given)  Ubiquitin carboxyl-terminal hydrolase 28 (Homo sapiens)  > 50 µM (inactive)
5  CC(C)(C)C(=O)NC(c1ccccc1)c1nnc(N2CCOCC2)o1 (stereo not given)  Ubiquitin carboxyl-terminal hydrolase 28 (Homo sapiens)  > 50 µM (inactive)
6  Cc1ccc2nnc(-c3ccccc3)c(C(=O)N3CCN(c4ccccn4)CC3)c2c1  Ubiquitin carboxyl-terminal hydrolase 28 (Homo sapiens)               35 µM
7  O=C(NCc1nc2ccccc2[nH]1)c1cccc(S(=O)(=O)N2CCc3ccccc32)c1  Ubiquitin carboxyl-terminal hydrolase 28 (Homo sapiens)             31.4 µM
8  Cc1cccc(-n2ccnc(SCC(=O)Nc3ccc(Cl)cc3F)c2=O)c1  Ubiquitin carboxyl-terminal hydrolase 28 (Homo sapiens)             3.91 µM
9  CC(=O)Nc1ccc(-n2cnc(C(=O)NCc3ccc(C)cc3)c2)nc1  Ubiquitin carboxyl-terminal hydrolase 28 (Homo sapiens)             19.1 µM

----------
molecular target: Ubiquitin carboxyl-terminal hydrolase 28 (Homo sapiens); test: Concentration-response biochemical assay confirming initial hits as inhibitors of ubiquitin-specific protease 28 (AID 1645866); conditions: purified USP28, ubiquitin-rhodamine fluorescence, 30 min
Activity calls are given as the source filed them.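 The calls were made as follows: active = in confirmatory dose-response testing, peak deubiquitinase inhibition of 30% or more; inactive = the rest.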
Possible outcomes: active, inactive

In [3]: df
Out[3]:
                                    molecule  category
 0  O=C(COc1ccc(Cl)cc1Cl)Nc1ccc2[nH]c(=O)[nH]c2c1    active
 1          O=C(OCc1ccc(F)cc1)c1ccc2ccccc2n1    active
 2  COC(=O)c1ccc(C(=O)Nc2cc3ccccc3cc2NC(=O)c2ccc(C(=O)OC)cc2)cc1    active
 3  CCOc1ccc(NC(=O)c2cc(-c3ccccc3)c(N3CCOCC3)s2)cc1    active
 4    O=C(COc1ccc(Cl)cc1)Nc1noc(-c2ccccc2)n1    active
 5  Cc1nnc(C(=O)Nc2ccc(C(=O)NCc3ccccc3C)cc2)s1    active
 6  COc1ccc(C)cc1NC(=O)C(NS(=O)(=O)c1ccc2c(c1)CCN2C(C)=O)C(C)C (configuration not stated)  inactive
 7  Cc1cc(Nc2ccc(C(=O)NCc3ccco3)cc2)n2nc(-c3cccnc3)nc2n1    active
 8  COc1ccc(NC(=O)C2CCN(c3cncnc3N(C)C)CC2)cc1OC    active
 9  CCOc1ccc(NC(=O)Cn2c(=O)n(CCCCCC(=O)NCc3ccc(F)cc3)c(=O)c3sccc32)cc1    active
10  COc1ccccc1NC(=O)c1cc2c(C)nn(Cc3ccccc3)c2s1    active
11  O=C(Cn1cnc(-c2noc(-c3ccncc3)n2)c1)N1CCN(c2ccccc2F)CC1  inactive
12  COc1ccc(NC(=O)CSc2oc(-c3ccc(C)cc3)nc2S(=O)(=O)c2ccc(Br)cc2)c(OC)c1  inactive
13          Cc1nc(Nc2c3ccccc3nc3ccccc23)sc1C  inactive
14  Cc1ccc(C)c(-c2cc3c(=O)n(Cc4noc(CN5CCCCC5)n4)ccn3n2)c1    active
15  COc1ccc(Cl)cc1N1C(=O)[C@H]2[C@@H](C1=O)[C@]1(C(=O)Nc3c(C)cc(C)cc31)N1CCC[C@@H]21  inactive
16  COc1cc(OC)cc(-c2nc(-c3cn(-c4cccc(F)c4)nn3)no2)c1    active
17  O=C(CSc1cn(Cc2ccccc2)c2ccccc12)Nc1ccc2c(c1)OCCO2    active
18  O=C(/C=C/c1ccccc1)N1CCN(C2=NS(=O)(=O)c3ccccc32)CC1  inactive
19  CCc1cc2cc3c(cc2nc1SCC(=O)Nc1cccc(C(C)=O)c1)OCO3    active
20  CCCN1C=NS(=O)(=O)c2cc(C(=O)Nc3ccc(OC)c(Cl)c3)ccc21    active
21    O=C1N(Cc2ccc(F)cc2)CCN1c1ccc2c(c1)CCC2    active
22    Nc1c(C(=O)NCCc2ccccc2)nnn1-c1ccc(F)cc1    active
23  Cc1nn(Cc2ccccc2)c(C)c1C(=O)NC1CCCc2ccccc21 (configuration not stated)    active
24  CC1(C)CC(n2[nH]c(=O)c3c2NC(=O)CSC3c2ccc(OCc3ccccc3)cc2)CCO1 (configuration not stated)    active
25  COc1ccccc1NC(=O)c1nn(-c2cccc(F)c2)c(OC)cc1=O    active
26    Cc1ccc(-c2nc(Cn3cnc4ccccc4c3=O)cs2)cc1    active
27    O=C(Nc1cc(F)c2nc(N3CCOCC3)ccc2c1)C1CC1    active
28  Cc1c(CC(=O)N2CCN(c3ncccn3)CC2)c(=O)oc2cc(O)ccc12    active
29  O=C(COc1ccc(F)cc1)Nc1cnc(-c2ccc(Cl)cc2)nc1    active
30  Cc1noc(-c2cc(=O)n(CC(=O)NCc3ccccc3)c3ccccc23)n1    active
31  CN(C)S(=O)(=O)N1CCCC2(C1)Nc1cccnc1NC2=NC1CCCC1 (configuration not stated)  inactive
32  Cc1nn(-c2ccccc2)c2c1N=C1C(Cl)=CC(Cl)=CN1C21C(=O)Nc2ccccc21 (configuration not stated)  inactive
33  CC1CCN(c2cc(-n3cnc(C(=O)N4CCCC(C)C4)c3)ncn2)CC1 (configuration not stated)    active
34  COc1cnc(CSc2ncccn2)cc1OCC(=O)Nc1cc(C)ccc1C  inactive
35    CC(C)c1ccc(NC(=O)c2cc3ncc(Br)cn3n2)cc1    active
36         Cc1ccc(N=Cc2sc(O)c3ccccc23)c(C)c1  inactive
37  Cc1cc(N2CCN(c3ncccn3)CC2)nc2ccc(NC(=O)/C=C/c3ccccc3Cl)cc12    active
38  Cc1ccc(NC(=O)Cn2c(-n3nc(C)cc3C)nc3c(c2=O)CCCC3)c(C)c1    active
39  O=C(NCCc1ccccn1)c1cc(-c2ccc(Br)cc2)n[nH]1    active
40  CN1CCC(N(C)S(=O)(=O)c2ccc(NC(=O)c3cccc(OCc4ccccc4)c3)cc2)CC1    active
41   O=c1c2c(ccn1Cc1cc(F)ccc1F)ccn2Cc1cccnc1    active
